Record: compiled IC50 on Cyclin-dependent kinase 1 (Homo sapiens) from multiple reports.

chemical-string	IC50
CC1(C)c2cc(OCCN3CCOCC3)ccc2C(=O)c2c1oc1cc(C#Cc3cc(OCC4CC4)ccn3)ccc21	> 10000 nM
Cc1ncc(-c2nc(Nc3ccc(C(=O)NC4CCN(C)CC4)cc3)ncc2F)n1C(C)C	50 nM
NC(=O)c1cccc2c1C(=NNc1ccc(S(N)(=O)=O)cc1)C(=O)N2	> 1000 nM

----------
What follows is literature data on log10 IC50 for Cyclin-dependent kinase 1 (Homo sapiens).
outcome-measure: log10 IC50 (log10 of the value in µM)

chemical-string	target	log10 IC50
CC(C)[C@H](CO)Nc1nc(Nc2ccccc2)c2ncn(C(C)C)c2n1	Cyclin-dependent kinase 1 (Homo sapiens)	-0.62
Nc1ncc(-c2ccccc2)cc1-c1nc2ccccc2[nH]1	Cyclin-dependent kinase 1 (Homo sapiens)	-0.80
COc1ccc(Cc2nnc(N3CCN(C(=O)Nc4ccc(Cl)c(C(F)(F)F)c4)CC3)c3ccccc23)cc1	Cyclin-dependent kinase 1 (Homo sapiens)	-1.43
Cc1ncc(-c2ccnc(Nc3ccc(C(=O)NC4CCN(C)CC4)cc3)n2)n1C(C)C	Cyclin-dependent kinase 1 (Homo sapiens)	-0.74
Clc1cccc(CNc2[nH]nc3ncnc(Nc4cccc(Cl)c4)c23)c1	Cyclin-dependent kinase 1 (Homo sapiens)	1.20
COc1ccc(Nc2nn3c(-c4ccccc4)cc(-c4ccccc4)nc3c2C(N)=O)c(OC)c1	Cyclin-dependent kinase 1 (Homo sapiens)	-0.79
Cc1ccc(CN(c2nc(Nc3cccc(Cl)c3)c3ncn(C(C)C)c3n2)[C@@H](CO)C(C)C)cc1	Cyclin-dependent kinase 1 (Homo sapiens)	1.00
